Reference source for all entries: paper PMC11551755

Biological target: FLhPIF1 (full length human PIF1) (Homo sapiens)
Construct: Full length human PIF1 (FLhPIF1) was expressed and purified as a His-SUMO fusion; His-SUMO (cleaved yes); made in house; 'following similar protocols' to hPIF1HD (ArcticExpress BL21(DE3) E. coli)
Sequence (Q9H611 1-641): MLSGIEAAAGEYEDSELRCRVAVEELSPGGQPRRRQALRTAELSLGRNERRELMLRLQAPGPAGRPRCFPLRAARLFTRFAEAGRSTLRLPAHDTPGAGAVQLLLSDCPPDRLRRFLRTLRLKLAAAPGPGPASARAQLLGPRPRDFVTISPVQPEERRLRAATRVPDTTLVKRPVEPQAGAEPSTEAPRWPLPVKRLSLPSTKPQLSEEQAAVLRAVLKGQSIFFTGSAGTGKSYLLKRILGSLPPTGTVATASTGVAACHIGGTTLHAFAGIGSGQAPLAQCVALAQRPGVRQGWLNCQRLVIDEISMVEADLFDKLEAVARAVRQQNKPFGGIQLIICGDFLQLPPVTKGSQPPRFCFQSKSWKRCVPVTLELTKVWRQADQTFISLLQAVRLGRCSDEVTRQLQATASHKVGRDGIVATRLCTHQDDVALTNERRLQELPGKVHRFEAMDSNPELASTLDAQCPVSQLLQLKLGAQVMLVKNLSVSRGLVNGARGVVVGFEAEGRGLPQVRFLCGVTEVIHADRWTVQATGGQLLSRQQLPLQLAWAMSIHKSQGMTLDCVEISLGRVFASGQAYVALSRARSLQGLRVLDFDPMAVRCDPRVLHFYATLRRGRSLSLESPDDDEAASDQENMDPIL
Assay: radiometric strand displacement helicase assay, no pre-incubation
Assay type: biochemical
Conditions: 1 mM single point, gel-based DNA unwinding assay, four repeats (S4 n=3)
Documented inhibition at 1000 µM across a set of compounds
Answer with a number only, understood to be in %.

CC(=O)Nc1ccc(-c2csc(N)n2)cc1C(C)O (stereo not drawn): 42.5
Nc1nc(-c2cccc(OC(F)(F)F)c2)cs1: 59.5
CC(=O)Nc1ccc(-c2csc(N)n2)cc1C(C)=O: 10.4
COC(=O)Cc1ccc(-c2csc(N)n2)cc1: 35.9
CNC(=O)c1ccc(-c2csc(N)n2)cc1: 37.9

The recorded inhibition at 1000 µM for entry "COc1cc(-c2csc(N)n2)ccc1NC(C)=O" equals 22.1

The recorded inhibition at 1000 µM for entry "CCCNC(=O)c1cccc(-c2csc(N)n2)c1" equals 0.2

The recorded inhibition at 1000 µM for entry "Nc1nc(-c2ccc(S(N)(=O)=O)cc2)cs1" equals -17.3

The recorded inhibition at 1000 µM for entry "CC(=O)Nc1ccc(-c2csc(N)n2)cc1" equals 14.2
